Data provenance: ChEMBL document CHEMBL4732215

PROCEDURE DETAILS: Selectivity index, ratio of CC50 for human WI-26VA-4 cells to IC50 for chloroquine-resistant ring-stage Plasmodium falciparum W2 infected in human RBC
Format: toxicity
TEST CONDITIONS: read-out: Ratio CC50/IC50
Below, each entry is listed alongside its reported selectivity ratio.
// no unit, no text: just the number

structure_notation=Oc1cc(O)cc(/C=N/Nc2ccnc3cc(Cl)ccc23)c1 measurement=20.6
structure_notation=O=C(O)c1ccc(/C=N/Nc2ccnc3cc(Cl)ccc23)cc1 measurement=245
structure_notation=Oc1cc(O)cc(/C=N/CCNc2ccnc3cc(Cl)ccc23)c1 measurement=387
structure_notation=Oc1ccc(/C=N/Nc2ccnc3cc(Cl)ccc23)c(O)c1 measurement=30.9
structure_notation=Oc1ccc(/C=N/CCNc2ccnc3cc(Cl)ccc23)c(O)c1 measurement=990
structure_notation=COc1cc(/C=N/Nc2ccnc3cc(Cl)ccc23)ccc1O measurement=45.8
structure_notation=O=Cc1ccc(/C=N/CCNc2ccnc3cc(Cl)ccc23)cc1 measurement=861
structure_notation=Oc1ccccc1/C=N/CCNc1ccnc2cc(Cl)ccc12 measurement=97.4

// returns reported selectivity ratio for input Oc1ccc(/C=N/CCNc2ccnc3cc(Cl)ccc23)cc1
802

* * *

PROCEDURE DETAILS: Hemolytic activity against human RBC at 150 uM incubated for 16 hrs by spectrophotometric analysis
Type: ADME, cell-based, Erythrocyte
TEST CONDITIONS: human red blood cells (erythrocytes), read-out: Activity
PROPERTY: hemolysis at 16 h, 150 µM

// worked examples, hemolysis at 16 h, 150 µM included
structure_notation=Oc1ccc(/C=N/CCNc2ccnc3cc(Cl)ccc23)cc1 property="hemolysis at 16 h, 150 µM" measurement="< 10%"
structure_notation=COc1cc(/C=N/Nc2ccnc3cc(Cl)ccc23)ccc1O property="hemolysis at 16 h, 150 µM" measurement="< 10%"
structure_notation=Oc1ccc(/C=N/CCNc2ccnc3cc(Cl)ccc23)c(O)c1 property="hemolysis at 16 h, 150 µM" measurement="< 10%"
structure_notation=O=C(O)c1ccc(/C=N/CCNc2ccnc3cc(Cl)ccc23)cc1 property="hemolysis at 16 h, 150 µM" measurement="< 10%"
structure_notation=Oc1ccccc1/C=N/CCNc1ccnc2cc(Cl)ccc12 property="hemolysis at 16 h, 150 µM" measurement="< 10%"

Consider the molecule shown here: O=C(O)c1ccc(/C=N/Nc2ccnc3cc(Cl)ccc23)cc1 What is its recorded hemolysis at 16 h, 150 µM?
< 10%

Next up: Oc1cc(O)cc(/C=N/Nc2ccnc3cc(Cl)ccc23)c1
< 10%

Next entry: Oc1ccc(/C=N/Nc2ccnc3cc(Cl)ccc23)c(O)c1
< 10%

Now the molecule Oc1cc(O)cc(/C=N/CCNc2ccnc3cc(Cl)ccc23)c1
< 10%

* * *

PROCEDURE DETAILS: Cytotoxicity against human WI26VA4 cells assessed as reduction in cell viability incubated for 48 hrs by MTT assay
Format: cell-based
PROPERTY: CC50 at 48 h (µM)
// units = µM; emit number, no label

Worked examples follow.
structure_notation=Oc1cc(O)cc(/C=N/Nc2ccnc3cc(Cl)ccc23)c1 u=µM measurement=12.9
structure_notation=O=C(O)c1ccc(/C=N/Nc2ccnc3cc(Cl)ccc23)cc1 u=µM measurement=82
structure_notation=Oc1ccc(/C=N/CCNc2ccnc3cc(Cl)ccc23)c(O)c1 u=µM measurement=171
structure_notation=O=Cc1ccc(/C=N/CCNc2ccnc3cc(Cl)ccc23)cc1 u=µM measurement=138
structure_notation=Oc1ccc(/C=N/Nc2ccnc3cc(Cl)ccc23)c(O)c1 u=µM measurement=7.27

Please report the recorded CC50 at 48 h for Oc1ccc(/C=N/CCNc2ccnc3cc(Cl)ccc23)cc1 .
130

Same thing, different compound: COc1cc(/C=N/Nc2ccnc3cc(Cl)ccc23)ccc1O
10.8

Next record, please: Oc1cc(O)cc(/C=N/CCNc2ccnc3cc(Cl)ccc23)c1
79.3

Moving on to Oc1ccccc1/C=N/CCNc1ccnc2cc(Cl)ccc12
25.3
